# MEASUREMENT_PROTOCOL: Solubility of the ketals in water / deionized water
# Assay type: physicochemical
# ASSAY_CONDITIONS: water; product or starting alcohol as described in the example
ATTRIBUTE_MEASURED: Solubility in water

molecule="c1ccc(OCCOC2(OCCOc3ccccc3)CCCCC2)cc1 [A, 1,1-di(2-phenoxyethoxy)cyclohexane]" attribute_measured="Solubility in water" obs_value=water-insoluble
molecule="CC(C)(C)c1ccc(OCCO)cc1 [2-[4-(1,1-dimethylethyl)phenoxy]ethanol]" attribute_measured="Solubility in water" obs_value=water-insoluble
molecule=CC(C)(C)CC(C)(C)c1ccc(OCCO)cc1 attribute_measured="Solubility in water" obs_value=water-insoluble
